Each entry below carries its recorded GI50.
Test system: NCI-H226
Method description: NCI tumour cell line growth inhibition, 48 h
Activity calls are given as the source filed them. Cut-off read from the data, not from the text of the source: active = GI50 up to about 1.1 µM and inactive = higher.

Compound	GI50
C=C(C)[C@@H]1CC[C@]2(C(=O)OC3OC(COC4OC(CO)C(OC5OC(C)C(O)C(O)C5O)C(O)C4O)C(O)C(O)C3O)CC[C@]3(C)[C@H](CC[C@@H]4[C@@]5(C)CC[C@H](O)[C@@](C)(CO)[C@@H]5CC[C@]43C)[C@@H]12 (some centres not stated)	3.16 µM (inactive)

Problem: System NCI-H226. Read-out GI50. Item `O=C(O)c1cn2c3c(cc(N4CCN(CCO)CC4)cc3c1=O)SCC2` . Report value.
Solution: 63.8 µM (inactive)

Problem: Quote GI50 with test system NCI-H226 for `c1cc2cc(Cc3ccc4[nH]ccc4c3)ccc2[nH]1`
Solution: 15.9 µM (inactive)

Problem: Lab note: record GI50 of CC(=O)OC1C[C@@H](C)C2(CC(c3ccoc3)OC2=O)C2CCC(O)C3(CO3)C12CO (some centres not stated) tested on NCI-H226.
Solution: > 100 µM (inactive)

Problem: # assay system NCI-H226: give GI50 of `COC(=O)c1c2c(cc3c1CC1(C3)Cc3cc4c(c(C(=O)OC)c3C1)CCCC4)CCCC2`
Solution: > 100 µM (inactive)

Problem: Write GI50 of `C=CC[C@@]1(C)CCCCCCCCC[C@@](C)(CC=C)C1=O` ; system used: NCI-H226
Solution: 23.8 µM (inactive)

Problem: Report GI50 under test system NCI-H226 for `O/N=C1/CCC/C1=C\c1ccccc1` .
Solution: > 100 µM (inactive)

Problem: Give reported GI50 for `C=Cc1nc2c(Cl)ncnc2n1Cc1ccccc1` (NCI-H226)
Solution: 3.08 µM (inactive)

Problem: Write down measured GI50 (NCI-H226) for this compound. `COC(=O)[C@H](CCSC)NC(=O)c1ccc(CNC(=O)/C(C)=C/c2ccccc2)cc1`
Solution: > 100 µM (inactive)

Problem: Give measured GI50 for `CC(C)c1c2[nH]c3ccccc3c2c(C(C)C)c2[nH]c3ccccc3c12` (NCI-H226).
Solution: > 47.3 µM (inactive)

Problem: Give GI50 only, for COc1ccc(N[S+]([O-])c2c(C)cc(C)cc2C)cc1 (configuration not stated) , using NCI-H226 data.
Solution: 36.2 µM (inactive)

Problem: Give reported GI50 for `CCOC(=O)c1nc2ccc(C(F)(F)F)cc2nc1Oc1ccc(OC)cc1` (NCI-H226)
Solution: > 100 µM (inactive)

Problem: Fetch value of GI50 on NCI-H226 for `Nc1nc(-c2ccco2)cc(-c2ccco2)n1` .
Solution: 71.3 µM (inactive)

Problem: # lookup: NCI-H226 GI50, key = `CCOP(=O)(COCCn1nc(Br)c(=O)[nH]c1=O)OCC`
Solution: > 100 µM (inactive)

Problem: Look up and report GI50, with NCI-H226 as system, for CCOC(=O)[C@@H]1ON2OC(OC3CCCC3(c3ccccc3)c3ccccc3)C(OC(C)=O)[C@H]3OC(=O)[C@@H]1C32 (some centres not stated)
Solution: > 100 µM (inactive)

Problem: Look up and report measured GI50 (NCI-H226) for the following compound: CCOC(=O)CCC(NC(=O)c1ccc(NCc2ccc3nc(-c4ccccc4)c(Cl)nc3c2)c2ccccc12)C(=O)OCC (configuration not stated)
Solution: > 100 µM (inactive)

Problem: Fill: GI50 (NCI-H226) for this compound `Cc1c(Cl)nc(Nc2nc3ccccc3[nH]2)nc1Cl`
Solution: > 100 µM (inactive)
